Values from ChEMBL document CHEMBL3621107

Tested on: HL-60(TB)
test: Cytotoxicity against human HL-60(TB) cells after 48 hrs by SRB assay
Type: functional
recorded.conditions: HL-60, 48 h
quantity.name: TGI (µM)

1. O=C1c2ccccc2C(=O)c2c1cc(Sc1cccc(Cl)c1)c1nsnc21 :: 6.71
2. CC(C)Sc1cc2c(c3nsnc13)C(=O)c1ccccc1C2=O :: 0.617
3. O=C1c2ccccc2C(=O)c2c1cc(Sc1ccc(F)cc1F)c1nsnc21 :: 7.7

----------
Tested on: HCT-116
test: Cytotoxicity against human HCT116 cells after 48 hrs by SRB assay
Format: functional
recorded.conditions: HCT-116, 48 h
quantity.name: TGI

1) O=C1c2ccccc2C(=O)c2c1cc(Sc1cccc(Cl)c1)c1nsnc21 :: 2.66 µM
2) O=C1c2ccccc2C(=O)c2c1cc(SCc1ccccc1)c1nsnc21 :: 14.2 µM
3) CC(C)Sc1cc2c(c3nsnc13)C(=O)c1ccccc1C2=O :: 1.01 µM
4) O=C1c2ccccc2C(=O)c2c1cc(Sc1ccccc1Br)c1nsnc21 :: 19.9 µM
5) O=C1c2ccccc2C(=O)c2c1cc(Sc1ccc(F)cc1F)c1nsnc21 :: 3.22 µM

----------
System: IGROV-1
test: Cytotoxicity against human IGROV1 cells after 48 hrs by SRB assay
Assay type: functional
recorded.conditions: IGROV-1, 48 h
Items are presented alongside their recorded TGI.
quantity.name: TGI (µM)

1. O=C1c2ccccc2C(=O)c2c1cc(Sc1ccc(F)cc1F)c1nsnc21 :: 10.2
2. CC(C)Sc1cc2c(c3nsnc13)C(=O)c1ccccc1C2=O :: 3.01
3. O=C1c2ccccc2C(=O)c2c1cc(SCc1ccccc1)c1nsnc21 :: 15.4
4. O=C1c2ccccc2C(=O)c2c1cc(Sc1cccc(Cl)c1)c1nsnc21 :: 5.37

----------
Test system: 786-0
test: Cytotoxicity against human 786-0 cells after 48 hrs by SRB assay
Type: functional
recorded.conditions: 786-0, 48 h
quantity.name: GI50 (nM)

1) O=C1c2ccccc2C(=O)c2c1cc(SCc1ccccc1)c1nsnc21 :: 12300
2) CC(C)Sc1cc2c(c3nsnc13)C(=O)c1ccccc1C2=O :: 2750
3) O=C1c2ccccc2C(=O)c2c1cc(Sc1ccccc1Br)c1nsnc21 :: 11200
4) O=C1c2ccccc2C(=O)c2c1cc(Sc1ccc(F)cc1F)c1nsnc21 :: 1850
5) O=C1c2ccccc2C(=O)c2c1cc(Sc1cccc(Cl)c1)c1nsnc21 :: 2910

----------
Items are presented alongside their recorded LC50.
Test system: RPMI-8226
test: Cytotoxicity against human RPMI8226 cells after 48 hrs by SRB assay
Assay type: functional
recorded.conditions: RPMI-8226, 48 h
quantity.name: LC50

1. O=C1c2ccccc2C(=O)c2c1cc(Sc1ccc(F)cc1F)c1nsnc21 :: 63.9 µM
2. O=C1c2ccccc2C(=O)c2c1cc(SCc1ccccc1)c1nsnc21 :: > 50 µM
3. O=C1c2ccccc2C(=O)c2c1cc(Sc1cccc(Cl)c1)c1nsnc21 :: > 100 µM
4. O=C1c2ccccc2C(=O)c2c1cc(Sc1ccccc1Br)c1nsnc21 :: > 50 µM
5. CC(C)Sc1cc2c(c3nsnc13)C(=O)c1ccccc1C2=O :: > 100 µM

----------
Tested on: A549
test: Cytotoxicity against human A549 cells assessed as cell growth at 10 uM after 48 hrs by SRB assay relative to control
Assay type: functional
recorded.conditions: A549, 48 h, read-out: Activity
Items are presented alongside their recorded growth at 10 µM.
quantity.name: growth at 10 µM (%)

1. COc1cccc(Sc2cc3c(c4nsnc24)C(=O)c2ccccc2C3=O)c1 :: 110
2. O=C1c2ccccc2C(=O)c2c1ccc1nsnc21 :: 104
3. O=C1c2ccccc2C(=O)c2c1cc(Sc1cccc(Cl)c1)c1nsnc21 :: 107
4. O=C1c2ccccc2C(=O)c2c1cc(Cl)c1nsnc21 :: 103
5. Cc1cccc(C)c1Sc1cc2c(c3nsnc13)C(=O)c1ccccc1C2=O :: 90.2
6. Cc1ccccc1Sc1cc2c(c3nsnc13)C(=O)c1ccccc1C2=O :: 105

----------
Tested on: SW-620
test: Cytotoxicity against human SW620 cells after 48 hrs by SRB assay
Format: functional
recorded.conditions: SW-620, 48 h
Items are presented alongside their recorded LC50 (50% lethal concentration).
quantity.name: LC50 (50% lethal concentration) (µM)

1) CC(C)Sc1cc2c(c3nsnc13)C(=O)c1ccccc1C2=O :: 11.7
2) O=C1c2ccccc2C(=O)c2c1cc(SCc1ccccc1)c1nsnc21 :: 35.1
3) O=C1c2ccccc2C(=O)c2c1cc(Sc1ccc(F)cc1F)c1nsnc21 :: 69.5
4) O=C1c2ccccc2C(=O)c2c1cc(Sc1cccc(Cl)c1)c1nsnc21 :: 28.3

----------
System: OVCAR-5
test: Cytotoxicity against human OVCAR5 cells after 48 hrs by SRB assay
Type: functional
recorded.conditions: OVCAR-5, 48 h
quantity.name: TGI (µM)

1. CC(C)Sc1cc2c(c3nsnc13)C(=O)c1ccccc1C2=O :: 4.05
2. O=C1c2ccccc2C(=O)c2c1cc(Sc1cccc(Cl)c1)c1nsnc21 :: 6.08
3. O=C1c2ccccc2C(=O)c2c1cc(Sc1ccc(F)cc1F)c1nsnc21 :: 24

----------
Test system: PC-3
test: Cytotoxicity against human PC3 cells assessed as cell growth at 10 uM after 48 hrs by SRB assay relative to control
Format: functional
recorded.conditions: PC-3, 48 h, read-out: Activity
Returns: string. Value is Met if measured growth at 10 µM is below -10%, and Not met if it is greater than or equal to it.

1. O=C1c2ccccc2C(=O)c2c1cc(Cl)c1nsnc21 :: Not met
2. O=C1c2ccccc2C(=O)c2c1cc(Sc1ccc(Cl)cc1)c1nsnc21 :: Not met
3. Cc1cc(C)cc(Sc2cc3c(c4nsnc24)C(=O)c2ccccc2C3=O)c1 :: Not met
4. CC(C)Sc1cc2c(c3nsnc13)C(=O)c1ccccc1C2=O :: Met
5. COc1ccc(Sc2cc3c(c4nsnc24)C(=O)c2ccccc2C3=O)cc1 :: Not met

----------
Test system: SK-MEL-28
test: Cytotoxicity against human SK-MEL-28 cells assessed as cell growth at 10 uM after 48 hrs by SRB assay relative to control
Type: functional
recorded.conditions: SK-MEL-28, 48 h, read-out: Activity
Items are presented alongside their recorded growth at 10 µM.
quantity.name: growth at 10 µM (%)

1) O=C1c2ccccc2C(=O)c2c1cc(Sc1ccc(Cl)cc1)c1nsnc21 :: 130
2) COc1cccc(Sc2cc3c(c4nsnc24)C(=O)c2ccccc2C3=O)c1 :: 102
3) Cc1cccc(C)c1Sc1cc2c(c3nsnc13)C(=O)c1ccccc1C2=O :: 89.3
4) O=C1c2ccccc2C(=O)c2c1cc(SCc1ccc(Cl)cc1)c1nsnc21 :: 95.3
5) O=C1c2ccccc2C(=O)c2c1cc(Cl)c1nsnc21 :: 132
6) CCOc1cccc(Sc2cc3c(c4nsnc24)C(=O)c2ccccc2C3=O)c1 :: 112

----------
test: Cytotoxicity against human WPMY-1cells assessed as survival rate after 72 hrs by MTT assay
Assay type: cell-based
recorded.conditions: WPMY-1 cells, read-out: Survival
quantity.name: viability at 72 h (%)

1. CC(C)Sc1cc2c(c3nsnc13)C(=O)c1ccccc1C2=O :: 50

----------
System: NCI-H460
test: Cytotoxicity against human NCI-H460 cells assessed as cell growth at 10 uM after 48 hrs by SRB assay relative to control
Assay type: functional
recorded.conditions: NCI-H460, 48 h, read-out: Activity
Kindly return 1.0 if reported growth at 10 µM is no lower than 90%; return 0.0 if it is lower.

1) O=C1c2ccccc2C(=O)c2c1cc(Sc1ccc(Cl)cc1)c1nsnc21 :: 1.0
2) O=C1c2ccccc2C(=O)c2c1cc(SCc1ccc(Cl)cc1)c1nsnc21 :: 1.0
3) O=C1c2ccccc2C(=O)c2c1cc(Sc1ccc(F)cc1F)c1nsnc21 :: 0.0
4) COc1cccc(Sc2cc3c(c4nsnc24)C(=O)c2ccccc2C3=O)c1 :: 1.0
5) O=C1c2ccccc2C(=O)c2c1ccc1nsnc21 :: 0.0
6) CC(C)Sc1cc2c(c3nsnc13)C(=O)c1ccccc1C2=O :: 0.0
7) Cc1ccc(Sc2cc3c(c4nsnc24)C(=O)c2ccccc2C3=O)c(C)c1 :: 1.0
8) CSc1ccc(Sc2cc3c(c4nsnc24)C(=O)c2ccccc2C3=O)cc1 :: 1.0
9) O=C1c2ccccc2C(=O)c2c1cc(Sc1ccccc1)c1nsnc21 :: 1.0
10) Cc1cc(C)cc(Sc2cc3c(c4nsnc24)C(=O)c2ccccc2C3=O)c1 :: 1.0
11) O=C1c2ccccc2C(=O)c2c1cc(Sc1ccccc1Br)c1nsnc21 :: 0.0
12) COc1ccc(Sc2cc3c(c4nsnc24)C(=O)c2ccccc2C3=O)cc1 :: 1.0
13) O=C1c2ccccc2C(=O)c2c1cc(Sc1cc(Cl)ccc1Cl)c1nsnc21 :: 1.0
14) O=C1c2ccccc2C(=O)c2c1cc(Cl)c1nsnc21 :: 1.0
